test system: β-galactosidase in CMV-LacZ C2C12 myotubes; test: CMV-LacZ secondary screen in C2C12 myotubes (β-Gal stabilizing assay); format: cell-based, mouse; conditions: 20 uM; C2C12 CMV-LacZ myotubes; fold relative to DMSO
observation_type: CMV-LACZ in Myotubes, signal relative to DMSO
Give bare numbers.

CC(C)(C)NC(=O)NC(=O)CN1CCN(Cc2ccccc2)CC1 : 0.9010
COc1ccccc1C(=O)OCc1ccc2sc(C)nc2c1 : 0.9953
CCOc1cc(C)c(S(=O)(=O)N2CCCCC2)cc1C : 1.0453
COc1ccccc1C(=O)Nc1ccnn1C1CCN(C(=O)c2ccoc2)CC1 : 1.0282
COC(=O)c1ccc(COC(=O)CNC(=O)c2cccs2)cc1 : 1.159
Cc1[nH]c2ccc(F)cc2c1CCN(Cc1ccco1)C(=S)NC(C)(C)C : 0.8530
OC1(c2ccccc2)C/C(=N\n2cnnc2)C=C1c1ccccc1 (stereo not shown) : 1.018
Cc1nc2c(cnn2-c2ccccc2)c(=O)n1/N=C/c1ccccc1 : 1.017
Cc1cc(OCC(=O)NC(C)C)ccc1Cl : 1.2347
COc1ccccc1CNS(=O)(=O)c1ccc(Cl)s1 : 0.889

Count: 6. Required value per item: CMV-LACZ in Myotubes, signal relative to DMSO.
1. Cc1ccc(N(CCC(=O)O)S(=O)(=O)c2cccc(C(F)(F)F)c2)cc1
2. O=C(O)c1cc(-c2ccccc2Cl)n(-c2cccc(Cl)c2)n1
3. N/C(=N\OC(=O)c1cccc(C(F)(F)F)c1)c1cnccn1
4. Cc1cccc(NCC(=O)N/N=C\c2ccccn2)c1
5. Cc1cccc(NC(=O)c2cc3ccccc3oc2=O)c1
6. C=CCN(CC=C)C(=O)c1ccc(OC2CCN(S(=O)(=O)N(C)C)CC2)cc1

0.9323
0.8969
0.9671
0.9400
0.9662
0.9031

Recorded values, source patent US9980943B2.
